- TESTED SYSTEM: hMAO-A (Homo sapiens, UniProt P21397)
- Construct: purchased Sigma-Aldrich
- ASSAY PROCEDURE: In vitro MAO-A enzyme inhibitory activity (recombinant human enzyme, kynuramine substrate)
- Type: biochemical
EXPERIMENTAL ENDPOINT: pIC50
pIC50 is a log-scale quantity: -log10 of the concentration expressed in molar.

Read the entry C(#CC1(N2CCCC2c2cccnc2)CCCCC1)c1ccccc1 (stereo not shown) and write its reported pIC50. 6.10

----------
Quick list: pIC50 per entry.
- TESTED SYSTEM: hMAO-B (Homo sapiens)
- ASSAY PROCEDURE: In vitro MAO-B enzyme inhibitory activity (recombinant human enzyme, benzylamine substrate)
- CONDITION CONTEXT: recombinant human MAO-B; mean ± SD of 3 independent experiments in triplicate
pIC50 is a log-scale quantity: -log10 of the concentration expressed in molar.

1) C(#CC1(N2CCCC2c2cccnc2)CCCCC1)c1ccccc1 (centres unmarked): 6.77

Read the entry C(#CC1(N2CCCC2c2cccnc2)CCCC1)c1ccccc1 (centres unmarked) and write its reported pIC50. 6.78

Read the entry CCCCCCC(C#Cc1ccccc1)(CCC)N1CCCC1 (centres unmarked) and write its reported pIC50. 6.49

Read the entry "CCOC(=O)C1CCN(C2(C#Cc3ccccc3)CCCCC2)CC1" and write its reported pIC50. 6.67

----------
- TESTED SYSTEM: hMAO-B (Homo sapiens)
- Construct: purchased Sigma-Aldrich
- ASSAY PROCEDURE: In vitro MAO-B enzyme inhibitory activity (recombinant human enzyme, benzylamine substrate)
- Type: biochemical
- CONDITION CONTEXT: SI = IC50 (hMAO-A)/IC50 (hMAO-B) ratio
- Method: The Novaroli et al. method was used with minor modifications to study the biological activities of MAO-A and MAO-B in vitro. […] IC50 values were then calculated. […] The initial rates of oxidation were measured in a 1 mL cuvette containing 50 mM of sodium phosphate (pH 7.4) at 25 °C, as described previously, except for the substrate concentrations and assay times. […] Substrate addition initiated the reaction, and the reaction rates were quantified as alterations in absorbance per minute.
Answer n if SI is under 5, and y if it is 5 or more.

Please review the entries below; each comes with its answer.
1) CC(C)(O)C#CC1(N2CCCC2c2cccnc2)CCCCC1 (stereo not drawn) [4k]: y
2) C(#CC1(N2CCCC2c2cccnc2)CCCC1)c1ccccc1 (stereo not drawn) [4j]: y
3) C(#CC1(N2CCCC2c2cccnc2)CCCCC1)c1ccccc1 (stereo not drawn) [4aa]: n

Please look at the following molecule next.
Confirm if SI reported for the molecule CC(C)(O)C#CC1(NCc2ccc(F)cc2)CCCCC1 [4ad] is 5 or above. n

----------
- TESTED SYSTEM: hMAO-A (Homo sapiens)
- Construct: purchased Sigma-Aldrich
- Sequence (P21397 1-527): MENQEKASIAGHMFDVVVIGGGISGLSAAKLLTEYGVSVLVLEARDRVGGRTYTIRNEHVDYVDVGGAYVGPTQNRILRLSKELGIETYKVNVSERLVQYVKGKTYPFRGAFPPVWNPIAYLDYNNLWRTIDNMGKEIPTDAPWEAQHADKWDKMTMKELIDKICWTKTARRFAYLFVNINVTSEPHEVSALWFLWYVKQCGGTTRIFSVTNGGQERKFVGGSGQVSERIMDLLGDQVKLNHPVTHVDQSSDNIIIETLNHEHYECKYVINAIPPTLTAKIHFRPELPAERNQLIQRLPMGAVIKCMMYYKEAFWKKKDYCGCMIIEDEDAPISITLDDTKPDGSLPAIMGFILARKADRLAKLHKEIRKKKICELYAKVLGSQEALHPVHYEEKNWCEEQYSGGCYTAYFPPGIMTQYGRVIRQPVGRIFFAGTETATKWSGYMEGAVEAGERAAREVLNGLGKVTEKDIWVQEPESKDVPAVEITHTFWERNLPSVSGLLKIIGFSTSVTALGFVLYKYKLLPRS
- ASSAY PROCEDURE: In vitro MAO-A enzyme inhibitory activity (recombinant human enzyme, kynuramine substrate)
- Assay type: biochemical
- CONDITION CONTEXT: recombinant human MAO-A; mean ± SD of 3 independent experiments in triplicate; read-out: IC50 hMAO-A
EXPERIMENTAL ENDPOINT: IC50 (nM)
Value expressed in nM; do not type the unit.

Record excerpt, results attached:
1. CC(C)(O)C#CC1(N2CCCC2c2cccnc2)CCCCC1 (centres unmarked) [4k]: 797
2. CC(C)(O)C#CC1(NCc2ccc(F)cc2)CCCCC1 [4ad]: 766

Read the entry CC(C)(O)C#CC1(N2CCN(c3ccccc3)CC2)CCCCC1 [4ab] and write its reported IC50. 846

Read the entry C(#CC1(N2CCCC2c2cccnc2)CCCC1)c1ccccc1 (centres unmarked) [4j] and write its reported IC50. 862

Read the entry COc1ccc(CNC2(C#Cc3ccccc3)CCCCC2)cc1 [4m] and write its reported IC50. 803

----------
- TESTED SYSTEM: hMAO-B (Homo sapiens, UniProt P27338)
- ASSAY PROCEDURE: In vitro MAO-B enzyme inhibitory activity (recombinant human enzyme, benzylamine substrate)
- CONDITION CONTEXT: recombinant human MAO-B; mean ± SD of 3 independent experiments in triplicate
EXPERIMENTAL ENDPOINT: pIC50
pIC50 is a log-scale quantity: -log10 of the concentration expressed in molar.

Record excerpt, results attached:
1. COc1ccc(C#CC2(N3CCCCC3)CCCCC2)c(C)c1 [4x]: 6.57
2. COc1ccc(CNC2(C#Cc3ccccc3)CCCCC2)cc1 [4m]: 6.78
3. Clc1ccc(C#CC2(N3CCCC3)CCCCC2)cc1 [4h]: 6.76
4. CCC(C)(C#Cc1ccccc1)N1CCCC1 (stereo not shown) [4o]: 6.51

Read the entry C(#CC1(NCc2ccccc2)CC2CCC1C2)c1ccccc1 (stereo not shown) [4ae] and write its reported pIC50. 6.49

Read the entry CC1CCCCC1(C#Cc1ccccc1)N1CCCC1 (stereo not shown) [4s] and write its reported pIC50. 6.55

Read the entry C(#CC1(N2CCCC2)CCCC1)c1ccccc1 [4b] and write its reported pIC50. 6.74

Read the entry CC1CCCC(C#Cc2ccccc2)(N2CCCC2)C1 (stereo not shown) [4t] and write its reported pIC50. 6.72

Read the entry Cc1ccc(C#CC2(N3CCCC3)CCCCC2)cc1 [4g] and write its reported pIC50. 6.72

Read the entry CCCN(CCC)C1(C#Cc2ccccc2)CCCCC1 [4e] and write its reported pIC50. 6.54

Read the entry CC(C)(O)C#CC1(NCc2ccc(F)cc2)CCCCC1 [4ad] and write its reported pIC50. 6.79

Read the entry C(#CC1(N2CCCC2)CCCCCC1)c1ccccc1 [4c] and write its reported pIC50. 6.74

----------
- TESTED SYSTEM: hMAO-B (Homo sapiens, UniProt P27338)
- Sequence (P27338 1-520): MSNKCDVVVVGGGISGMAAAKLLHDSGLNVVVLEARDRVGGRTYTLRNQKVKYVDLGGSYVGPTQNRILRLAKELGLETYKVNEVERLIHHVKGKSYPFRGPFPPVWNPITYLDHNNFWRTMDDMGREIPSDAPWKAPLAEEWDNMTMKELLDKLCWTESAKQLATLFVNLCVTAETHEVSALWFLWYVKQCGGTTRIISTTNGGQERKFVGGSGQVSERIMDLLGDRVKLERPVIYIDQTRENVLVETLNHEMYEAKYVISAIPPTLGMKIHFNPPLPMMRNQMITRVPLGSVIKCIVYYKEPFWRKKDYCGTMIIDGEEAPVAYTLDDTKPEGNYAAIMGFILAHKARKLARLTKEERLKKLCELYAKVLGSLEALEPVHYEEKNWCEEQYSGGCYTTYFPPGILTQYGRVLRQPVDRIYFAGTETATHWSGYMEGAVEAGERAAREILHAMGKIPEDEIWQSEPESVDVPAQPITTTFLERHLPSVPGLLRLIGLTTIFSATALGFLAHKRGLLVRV
- ASSAY PROCEDURE: In vitro MAO-B enzyme inhibitory activity (recombinant human enzyme, benzylamine substrate)
- CONDITION CONTEXT: recombinant human MAO-B; mean ± SD of 3 independent experiments in triplicate
Quick list: pIC50 per entry.
pIC50 is a log-scale quantity: -log10 of the concentration expressed in molar.

1. COc1ccc(C#CC2(N3CCCCC3)CCCCC2)cc1 [4i]: 6.76
2. Brc1ccccc1C#CC1(N2CCCCC2)CCCCC1 [4y]: 6.56
3. C(#CC1(NC2CCCCC2)CCCCC1)c1ccccc1 [4l]: 6.53
4. Cc1cccc(C#CC2(N3CCCCC3)CCCCC2)c1 [4w]: 6.55

Read the entry CCCC(C)(C#Cc1ccccc1)N1CCCC1 (stereo not shown) [4p] and write its reported pIC50. 6.69

Read the entry C(#CC1(N2CCOCC2)CCCCC1)c1ccccc1 [4d] and write its reported pIC50. 6.76

Read the entry Clc1ccc(C#CC2(N3CCCCC3)CCCCC2)cc1 [4f] and write its reported pIC50. 6.76

Read the entry CC(C)(O)C#CC1(N2CCCC2c2cccnc2)CCCCC1 (stereo not shown) [4k] and write its reported pIC50. 6.82

Read the entry C(#CC1(NCc2ccccc2)CCCCC1)c1ccccc1 [4ac] and write its reported pIC50. 6.56

Read the entry CCC(C#Cc1ccccc1)(CC)N1CCCC1 [4q] and write its reported pIC50. 6.50

Read the entry C(#CC1(N2CCCCC2)CCCC1)c1ccccc1 [4n] and write its reported pIC50. 6.56

Read the entry C(#CC1(N2CCCCC2)CCCCC1)c1ccccc1 [4a] and write its reported pIC50. 6.56

Read the entry CC(C)(O)C#CC1(N2CCN(c3ccccc3)CC2)CCCCC1 [4ab] and write its reported pIC50. 6.78

Reference source for all entries: paper PMC11174103
